Biological target: human ether-à-go-go-related gene (hERG) potassium channel (human);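 also: peak tail current of the secondary pulse compared with the same well before compound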
Sequence (Q12809 whole entry, looked up): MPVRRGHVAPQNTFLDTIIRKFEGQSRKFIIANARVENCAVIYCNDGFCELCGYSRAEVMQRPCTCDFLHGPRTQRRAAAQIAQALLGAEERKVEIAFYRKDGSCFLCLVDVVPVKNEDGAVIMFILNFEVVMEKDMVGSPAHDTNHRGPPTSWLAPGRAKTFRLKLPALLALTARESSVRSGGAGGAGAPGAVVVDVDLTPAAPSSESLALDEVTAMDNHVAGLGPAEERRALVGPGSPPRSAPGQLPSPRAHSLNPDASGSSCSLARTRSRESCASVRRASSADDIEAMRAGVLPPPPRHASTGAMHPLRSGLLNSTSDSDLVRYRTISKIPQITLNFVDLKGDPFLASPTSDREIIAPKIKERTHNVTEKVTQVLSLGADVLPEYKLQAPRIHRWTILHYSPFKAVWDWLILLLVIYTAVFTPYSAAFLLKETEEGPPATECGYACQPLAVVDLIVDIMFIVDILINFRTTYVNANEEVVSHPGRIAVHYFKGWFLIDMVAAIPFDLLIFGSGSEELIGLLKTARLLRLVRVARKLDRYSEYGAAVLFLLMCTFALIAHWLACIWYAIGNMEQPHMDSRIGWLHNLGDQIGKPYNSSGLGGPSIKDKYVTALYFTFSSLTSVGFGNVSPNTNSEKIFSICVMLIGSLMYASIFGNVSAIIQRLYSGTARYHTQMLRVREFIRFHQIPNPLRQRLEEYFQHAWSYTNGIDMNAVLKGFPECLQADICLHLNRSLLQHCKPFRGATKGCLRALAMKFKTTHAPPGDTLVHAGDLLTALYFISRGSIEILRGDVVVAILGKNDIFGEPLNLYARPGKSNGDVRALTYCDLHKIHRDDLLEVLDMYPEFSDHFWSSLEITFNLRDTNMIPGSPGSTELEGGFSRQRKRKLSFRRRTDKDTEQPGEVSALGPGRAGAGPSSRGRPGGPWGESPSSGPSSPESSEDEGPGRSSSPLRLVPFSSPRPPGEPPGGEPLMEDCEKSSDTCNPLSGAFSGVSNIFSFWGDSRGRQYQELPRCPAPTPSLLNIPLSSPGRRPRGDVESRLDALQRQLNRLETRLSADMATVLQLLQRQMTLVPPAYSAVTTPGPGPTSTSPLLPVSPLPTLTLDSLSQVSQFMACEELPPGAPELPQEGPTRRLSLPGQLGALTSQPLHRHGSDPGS
Assay: primary screen, population patch clamp on CHO cells stably expressing hERG; higher = less effect of the substance
The whole screen tested about 310,000 compounds, of which about 14,000 (4.5%) showed an effect of 50% or more. Effects have a minus sign here. Only a selection was taken, and strong results are over-represented in it overall.
Would you mind telling me the reported hERG current change (%, negative = inhibition) at 10uM of each entry?
Answers are plain numbers, in %.

Past entries and their recorded results:
>>> print(df.to_string())
                                        smi  endpoint_value
0   O=C(O)CN(Cc1ccccc1)S(=O)(=O)c1ccc(F)cc1            2.09
1    CCN(CC(=O)NCc1ccncc1)S(=O)(=O)c1ccccc1            5.51
2  O=C(CN(Cc1ccccc1)S(=O)(=O)c1ccc(F)cc1)NCc1cccnc1           -57.8
3  O=C(CN(Cc1ccc(Br)cc1)S(=O)(=O)c1ccccc1)NCc1ccccn1             -42

Quick check: hERG current change (%, negative = inhibition) at 10uM of O=C(CN(Cc1ccccc1)S(=O)(=O)c1ccc(F)cc1)NCc1ccccn1 ?
-10.6
